The reported measurements were obtained from the supplement of paper PMC10883282.

tested on: HS729; experiment: relative viability vs DMSO control (72 h) (fraction); higher = more viable cells; conditions: 0.00017 µM
Threshold check on relative viability: strictly below 1 is true (1); on or above 1 is false (0).

Please review the following examples before continuing.
Dear colleague, could you confirm whether relative viability of Cc1cccc(-c2[nH]c(CNc3ccccc3F)nc2-c2ccc3ncnn3c2)n1 falls below 1? Thanks. true (1)

Dear colleague, could you confirm whether relative viability of COc1cc(Nc2c(C#N)cnc3cc(OCCCN4CCN(C)CC4)c(OC)cc23)c(Cl)cc1Cl falls below 1? Thanks. false (0)

---
Dear colleague, could you confirm whether relative viability of NC(=O)c1cccc2cn(-c3ccc([C@@H]4CCCNC4)cc3)nc12 falls below 1? Thanks. true (1)

Dear colleague, could you confirm whether relative viability of CCN(c1cc(-c2ccc(CN3CCOCC3)cc2)cc(C(=O)NCc2c(C)cc(C)[nH]c2=O)c1C)C1CCOCC1 falls below 1? Thanks. false (0)

Dear colleague, could you confirm whether relative viability of C1=N/C2=N/c3ccc(OCCN4CCCC4)c(c3)COC/C=C/COCc3cccc(c3)C(=C1)N2 falls below 1? Thanks. false (0)

Dear colleague, could you confirm whether relative viability of Cc1c(F)cc(C(=O)NC2CC2)cc1-c1ccc(C(=O)NCC(C)(C)C)cn1 falls below 1? Thanks. false (0)
